tested on: NCI-H23; assay: NCI tumour cell line growth inhibition, 48 h
The source made the active and inactive calls. Cut-off read from the data, not from the text of the source: active = GI50 up to about 1.1 µM and inactive = higher.
Log the outcome using a class from active, inactive

Example entries begin here.
O=C1C(O)=C(CC=C(Cl)Cl)C(=O)c2ccccc21 : inactive
CC(c1ccccc1)/[N+]([O-])=C/c1ccccc1 (stereo unspecified) : inactive
O[C@@]1(C#Cc2ccc3c(c2)OCO3)CCC[C@H]1NCc1ccccc1 : inactive
O=C(O)c1cccc(SSc2cccc(C(=O)O)c2)c1 : inactive
CC[C@@]1(O)C[C@H](OC2CC(N(C)C)C(O)C(C)O2)c2c(cc3c(c2O)C(=O)c2c(O)ccc(O)c2C3=O)[C@H]1C(=O)OC (stereo partly specified) : active
O=[N+]([O-])/C(Cl)=C(\Nc1ccccc1)C(Cl)=C(Cl)Cl : inactive

What call does the record list for CN(C)CC1CCC/C(=C\c2ccc(Cl)cc2)C1=O (stereo unspecified) ? inactive

Field: outcome | Entry: N#Cc1ccccc1/C=N/O inactive

Please let me know the test result on file for Cn1c(N=[N+]=[N-])cc(=O)n(C)c1=O . inactive

Assay outcome for CCOC(=O)c1c(NC(=O)Nc2ccccc2)c(C(N)=O)c2n1CCCCC2 : what was it? inactive

So what was the verdict on O=S(=O)(/N=C(\NO)Nc1ccc(Cl)cc1)C1CC=C(c2ccon2)S1 (stereo unspecified) in this test? inactive

Record request — test call for NS(=O)(=O)c1ccc(NC(=O)c2cccn3c(=O)c4ccccc4nc23)cc1 inactive

Test call for this molecule, please: CSc1ccccc1NC1=NCCO1 inactive

Could you please tell me the result logged for CC1(C)CC(=O)c2c(nc(SSc3nc4c(c(-c5ccc(Br)cc5)c3C#N)C(=O)CC(C)(C)C4)c(C#N)c2-c2ccc(Br)cc2)C1 in this assay? inactive

Which outcome was entered for the molecule CNC(=O)N1CN(c2ccccc2)C2(CCN(CCCC3(c4ccc(F)cc4)OCCO3)CC2)C1=O in this test? inactive

What did this assay record as the result for CC1=NN(c2ccccc2Cl)C2(C1)SCC(=O)N2c1nc2ccccc2s1 (stereo unspecified) ? inactive

Entry COc1cc(O)c2c(c1)C(=O)c1cc3c(c(O)c1C2=O)C(OC1OC(C)C(O)C(O)C1OC)C(OC)C(C)(O)C3=O (stereo unspecified) : call = ? inactive

Lab log entry: O=C1CCCCC/C1=C\c1ccc(F)cc1 — outcome as called in the assay? inactive

Each molecule tested received a call. Report the one for COc1cc(/C=C2\CCC(CN(C)C)C2=O)ccc1OC(=O)c1ccccc1 (stereo unspecified) . inactive

Look up the recorded call for Oc1c2c(nc3cc4c(cc13)OCO4)-c1ccccc1CC2 in this test. inactive

Each molecule tested received a call. Report the one for OCC1CCCCCCCCCCC12SCCCS2 (stereo unspecified) . inactive
